In this section, each of the compounds is paired with its reported pIC50.
- Test System: Dual specificity protein kinase CLK1 (Mus musculus, UniProt P22518)
- Sequence (P22518 whole entry): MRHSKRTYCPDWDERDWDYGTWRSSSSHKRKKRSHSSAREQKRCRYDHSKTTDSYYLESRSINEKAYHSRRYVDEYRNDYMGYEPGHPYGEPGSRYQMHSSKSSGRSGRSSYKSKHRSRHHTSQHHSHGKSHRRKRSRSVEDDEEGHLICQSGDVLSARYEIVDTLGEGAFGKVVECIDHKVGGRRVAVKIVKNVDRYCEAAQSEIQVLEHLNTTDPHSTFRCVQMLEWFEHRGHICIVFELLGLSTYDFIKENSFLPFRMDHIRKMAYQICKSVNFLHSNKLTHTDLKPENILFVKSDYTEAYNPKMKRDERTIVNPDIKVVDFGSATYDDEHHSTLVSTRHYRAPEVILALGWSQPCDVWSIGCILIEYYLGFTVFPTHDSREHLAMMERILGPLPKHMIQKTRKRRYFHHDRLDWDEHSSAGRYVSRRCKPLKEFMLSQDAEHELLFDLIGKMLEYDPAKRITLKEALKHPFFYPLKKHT
- Assay Text: Inhibition of recombinant mouse CLK1 expressed in bacteria using GRSRSRSRSRSR as substrate in presence of [gamma-33P]ATP
pIC50: −log10 of the molar value.

{"Compound": "CCN(CC)CCCNc1ncc2cc3cnccc3c(N)c2n1", "pIC50": 6.80}
{"Compound": "CN(C)CCNc1ncc2cc3cnccc3c([N+](=O)[O-])c2n1", "pIC50": 7.21}
{"Compound": "O=[N+]([O-])c1c2ccncc2cc2cnc(NCCCN3CCOCC3)nc12", "pIC50": 6.92}
{"Compound": "O=[N+]([O-])c1c2ccncc2cc2cnc(NCCCN3CCCCC3)nc12", "pIC50": 6.90}
{"Compound": "CN1CCN(CCCNc2ncc3cc4cnccc4c([N+](=O)[O-])c3n2)CC1", "pIC50": 6.88}
{"Compound": "Nc1c2ccncc2cc2cnc(NCCCN3CCOCC3)nc12", "pIC50": 6.54}
{"Compound": "CN1CCN(CCNc2ncc3cc4cnccc4c(N)c3n2)CC1", "pIC50": 6.68}
{"Compound": "CN1CCN(CCCNc2ncc3cc4cnccc4c(N)c3n2)CC1", "pIC50": 6.93}
{"Compound": "CN(C)CCCNc1ncc2cc3cnccc3c(N)c2n1", "pIC50": 6.92}
{"Compound": "CNc1ncc2cc3cnccc3c([N+](=O)[O-])c2n1", "pIC50": 7.74}

###

# Activity listing for each entry below
- Test System: Glycogen synthase kinase-3 (Sus scrofa) (UniProt B2LUN4+I6LNT8)
- Assay Text: Inhibition of porcine brain GSK-3alpha/beta assessed as residual activity at 1 uM using YRRAAVPPSPSLSRHSSPHQSpEDEEE as substrate in presence of [gamma-33P]ATP relative to control
- Type: tissue-based
- Stated Conditions: Sus scrofa domesticus

{"Compound": "CN(C)CCCNc1ncc2cc3cnccc3c(N)c2n1", "Activity [%]": 36}
{"Compound": "O=[N+]([O-])c1c2ccncc2cc2cnc(NCCN3CCCCC3)nc12", "Activity [%]": 39}
{"Compound": "O=[N+]([O-])c1c2ccncc2cc2cnc(NCCCN3CCCCC3)nc12", "Activity [%]": 76}
{"Compound": "Nc1c2ccncc2cc2cnc(-c3ccccc3)nc12", "Activity [%]": 85}
{"Compound": "CNc1ncc2cc3cnccc3c(N)c2n1", "Activity [%]": 79}
{"Compound": "O=[N+]([O-])c1c2ccncc2cc2cnc(NCCCN3CCOCC3)nc12", "Activity [%]": 76}

###

- Test System: UniProt P22518
- Assay Text: Inhibition of recombinant mouse CLK1 expressed in bacteria using GRSRSRSRSRSR as substrate measured after 30 mins in presence of ATP by ADP-Glo kinase assay
Metric: IC50 (nM)

{"Compound": "CNc1ncc2cc3cnccc3c(N)c2n1", "Metric": "IC50", "Result Unit": "nM", "Observed Measurement": 274}

###

- Test System: Cyclin-dependent kinase 5/CDK5 activator 1 (Homo sapiens) (UniProt Q00535+Q15078)
- Sequence (Q00535 whole entry): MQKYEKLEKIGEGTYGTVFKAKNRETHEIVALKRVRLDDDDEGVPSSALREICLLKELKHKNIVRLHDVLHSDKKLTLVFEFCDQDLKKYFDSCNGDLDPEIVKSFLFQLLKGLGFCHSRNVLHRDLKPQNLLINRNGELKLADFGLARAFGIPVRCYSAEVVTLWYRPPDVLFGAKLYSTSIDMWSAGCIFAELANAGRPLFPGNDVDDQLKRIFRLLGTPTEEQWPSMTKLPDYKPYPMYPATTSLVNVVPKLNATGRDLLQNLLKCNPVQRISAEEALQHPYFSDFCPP
- Sequence (Q15078 99-307 partner limits assumed): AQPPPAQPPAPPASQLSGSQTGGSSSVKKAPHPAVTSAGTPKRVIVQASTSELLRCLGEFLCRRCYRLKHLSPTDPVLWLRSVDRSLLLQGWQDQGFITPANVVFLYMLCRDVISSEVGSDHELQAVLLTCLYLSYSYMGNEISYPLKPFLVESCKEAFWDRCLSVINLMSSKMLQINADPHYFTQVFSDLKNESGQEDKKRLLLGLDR
- Assay Text: Inhibition of recombinant human CDK5/p25 expressed in bacteria assessed as residual activity at 1 uM using histone H1 as substrate in presence of [gamma-33P]ATP relative to control
Recorded Activity by entry

{"Compound": "CCN(CC)CCCNc1ncc2cc3cnccc3c(N)c2n1", "Result Unit": "%", "Activity": 68}
{"Compound": "CN(C)CCCNc1ncc2cc3cnccc3c([N+](=O)[O-])c2n1", "Result Unit": "%", "Activity": 100}
{"Compound": "CNc1ncc2cc3cnccc3c(N)c2n1", "Result Unit": "%", "Activity": 33}
{"Compound": "CN(C)CCNc1ncc2cc3cnccc3c(N)c2n1", "Result Unit": "%", "Activity": 96}

###

- Test System: Dual specificity protein kinase CLK1 (Mus musculus)
- Assay Text: Inhibition of recombinant mouse CLK1 expressed in bacteria assessed as residual activity at 1 uM using GRSRSRSRSRSR as substrate in presence of [gamma-33P]ATP relative to control
Metric: Activity (%)

{"Compound": "CN(C)CCCNc1ncc2cc3cnccc3c([N+](=O)[O-])c2n1", "Metric": "Activity", "Observed Measurement": 27}
{"Compound": "CCN(CC)CCNc1ncc2cc3cnccc3c(N)c2n1", "Metric": "Activity", "Observed Measurement": 31}
{"Compound": "Nc1c2ccncc2cc2cnc(NCCN3CCCC3)nc12", "Metric": "Activity", "Observed Measurement": 33}
{"Compound": "CCN(CC)CCCNc1ncc2cc3cnccc3c(N)c2n1", "Metric": "Activity", "Observed Measurement": 21}
{"Compound": "O=[N+]([O-])c1c2ccncc2cc2cnc(NCCCN3CCCCC3)nc12", "Metric": "Activity", "Observed Measurement": 16}
{"Compound": "Nc1c2ccncc2cc2cnc(NCCN3CCCCC3)nc12", "Metric": "Activity", "Observed Measurement": 44}
{"Compound": "CN1CCN(CCNc2ncc3cc4cnccc4c([N+](=O)[O-])c3n2)CC1", "Metric": "Activity", "Observed Measurement": 32}
{"Compound": "CCN(CC)CCCNc1ncc2cc3cnccc3c([N+](=O)[O-])c2n1", "Metric": "Activity", "Observed Measurement": 31}
{"Compound": "Nc1c2ccncc2cc2cnc(NCCN3CCOCC3)nc12", "Metric": "Activity", "Observed Measurement": 27}
{"Compound": "Nc1c2ccncc2cc2cnc(NCCCN3CCOCC3)nc12", "Metric": "Activity", "Observed Measurement": 20}
{"Compound": "O=[N+]([O-])c1c2ccncc2cc2cnc(-c3ccccc3)nc12", "Metric": "Activity", "Observed Measurement": 71}
{"Compound": "Nc1c2ccncc2cc2cnc(-c3ccccc3)nc12", "Metric": "Activity", "Observed Measurement": 68}
{"Compound": "O=[N+]([O-])c1c2ccncc2cc2cnc(NCCN3CCCC3)nc12", "Metric": "Activity", "Observed Measurement": 27}
{"Compound": "O=[N+]([O-])c1c2ccncc2cc2cnc(NCCCN3CCOCC3)nc12", "Metric": "Activity", "Observed Measurement": 14}
{"Compound": "Nc1c2ccncc2cc2cnc(NCCCN3CCCC3)nc12", "Metric": "Activity", "Observed Measurement": 26}
{"Compound": "CN(C)CCCNc1ncc2cc3cnccc3c(N)c2n1", "Metric": "Activity", "Observed Measurement": 14}

###

The following compounds are listed with their measured Activity values.
- Test System: UniProt:P22518
- Assay Text: Inhibition of recombinant mouse CLK1 expressed in bacteria assessed as residual activity at 1 uM using GRSRSRSRSRSR as substrate in presence of [gamma-33P]ATP relative to control
Metric: Activity (%)

{"Compound": "Nc1c2ccncc2cc2cnc(NCCCN3CCCCC3)nc12", "Observed Measurement": 30}
{"Compound": "CCN(CC)CCNc1ncc2cc3cnccc3c([N+](=O)[O-])c2n1", "Observed Measurement": 46}
{"Compound": "O=[N+]([O-])c1c2ccncc2cc2cnc(NCCN3CCCCC3)nc12", "Observed Measurement": 42}
{"Compound": "CNc1ncc2cc3cnccc3c(N)c2n1", "Observed Measurement": 9}
{"Compound": "CN1CCN(CCCNc2ncc3cc4cnccc4c([N+](=O)[O-])c3n2)CC1", "Observed Measurement": 22}
{"Compound": "O=[N+]([O-])c1c2ccncc2cc2cnc(NCCN3CCOCC3)nc12", "Observed Measurement": 36}

###

- Test System: Glycogen synthase kinase-3 (Sus scrofa) (UniProt B2LUN4+I6LNT8)
- Assay Text: Inhibition of porcine brain GSK-3alpha/beta assessed as residual activity at 10 uM using YRRAAVPPSPSLSRHSSPHQSpEDEEE as substrate in presence of [gamma-33P]ATP relative to control
- Format: tissue-based
- Stated Conditions: Sus scrofa domesticus
# reported Activity; entries follow

{"Compound": "CCN(CC)CCCNc1ncc2cc3cnccc3c([N+](=O)[O-])c2n1", "Activity [%]": 24}
{"Compound": "O=[N+]([O-])c1c2ccncc2cc2cnc(-c3ccccc3)nc12", "Activity [%]": 100}
{"Compound": "CN(C)CCCNc1ncc2cc3cnccc3c([N+](=O)[O-])c2n1", "Activity [%]": 24}
{"Compound": "Nc1c2ccncc2cc2cnc(-c3ccccc3)nc12", "Activity [%]": 40}
{"Compound": "CNc1ncc2cc3cnccc3c(N)c2n1", "Activity [%]": 40}

###

- Assay Text: Antiproliferative activity against hTERT-RPE1 cells assessed as cell viability at 2 uM after 48 hrs by CellTiter96 AQueous assay relative to control
- Format: cell-based, TERT-RPE1
- Stated Conditions: human, read-out: Activity
Each item that follows carries a reported viability at 48 h, 2 µM.
Metric: viability at 48 h, 2 µM (%)

{"Compound": "Nc1ncc2cc3cnccc3c(N)c2n1", "Observed Measurement": 0.2}
{"Compound": "CN1CCN(CCNc2ncc3cc4cnccc4c(N)c3n2)CC1", "Observed Measurement": 19.4}
{"Compound": "Nc1c2ccncc2cc2cnc(NCCCN3CCOCC3)nc12", "Observed Measurement": 0}
{"Compound": "CN[C@@H]1C[C@H]2O[C@@](C)([C@@H]1OC)n1c3ccccc3c3c4c(c5c6ccccc6n2c5c31)C(=O)NC4", "Observed Measurement": 9.1}
{"Compound": "O=[N+]([O-])c1c2ccncc2cc2cnc(NCCCN3CCOCC3)nc12", "Observed Measurement": 31}
{"Compound": "CNc1ncc2cc3cnccc3c([N+](=O)[O-])c2n1", "Observed Measurement": 36}
{"Compound": "CN(C)CCCNc1ncc2cc3cnccc3c(N)c2n1", "Observed Measurement": 0}
{"Compound": "CN1CCN(CCCNc2ncc3cc4cnccc4c([N+](=O)[O-])c3n2)CC1", "Observed Measurement": 25.8}
{"Compound": "CN1CCN(CCCNc2ncc3cc4cnccc4c(N)c3n2)CC1", "Observed Measurement": 0}
{"Compound": "CN(C)CCNc1ncc2cc3cnccc3c([N+](=O)[O-])c2n1", "Observed Measurement": 29.2}
{"Compound": "Nc1c2ccncc2cc2cnc(NCCCN3CCCC3)nc12", "Observed Measurement": 52}
